Target: T1, C-terminally FLAG-tagged human Gas6 recombinant protein (hGas6-F) (human, UniProt Q14393 31-678, gamma-carboxylated glutamic acid residues in the Gla domain (producer cells co-express rat VKOR and human GGCX); positions not given)
T1 construct: also called human Gas6-F; human Gas6 protein
T1 sequence: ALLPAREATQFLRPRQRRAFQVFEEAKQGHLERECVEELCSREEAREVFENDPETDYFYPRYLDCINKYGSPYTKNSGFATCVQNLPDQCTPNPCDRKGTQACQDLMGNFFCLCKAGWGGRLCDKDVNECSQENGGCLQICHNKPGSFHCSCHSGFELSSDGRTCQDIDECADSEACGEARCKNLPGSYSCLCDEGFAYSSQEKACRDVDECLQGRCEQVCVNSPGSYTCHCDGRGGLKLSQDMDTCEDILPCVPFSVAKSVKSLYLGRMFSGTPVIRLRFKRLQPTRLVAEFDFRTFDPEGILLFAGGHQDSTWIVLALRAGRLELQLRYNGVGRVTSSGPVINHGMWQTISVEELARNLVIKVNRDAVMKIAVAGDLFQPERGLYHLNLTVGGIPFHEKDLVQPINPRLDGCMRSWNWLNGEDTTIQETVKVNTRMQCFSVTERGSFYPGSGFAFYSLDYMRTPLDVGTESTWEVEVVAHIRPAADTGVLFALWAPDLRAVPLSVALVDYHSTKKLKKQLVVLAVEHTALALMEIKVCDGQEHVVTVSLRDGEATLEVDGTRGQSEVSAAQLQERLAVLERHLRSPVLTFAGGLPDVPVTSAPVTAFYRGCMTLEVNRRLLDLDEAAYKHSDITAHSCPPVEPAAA
Assay: SPR Biacore T100, captured antibody, Gas6 analyte, first test
quantity-kind: kon

binder	endpoint-value
hzKM5321 LV1aHV0 antibody (antibody, V domains shown, Humanized; variant human IgG4 constant region (EU S228P, L235E, R409K), human kappa; also called B-03; LV1aHV0) VH: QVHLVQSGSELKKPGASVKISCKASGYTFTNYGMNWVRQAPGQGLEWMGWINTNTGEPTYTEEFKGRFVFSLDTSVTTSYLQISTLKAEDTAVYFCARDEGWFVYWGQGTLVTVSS VL: ETTLTQSPSSLSASVGDRVTITCITSTDIDDDMNWYQQKPGKPPKLLISEGNTLRPGVPSRFSGSGSGTDFTLTISSLQPEDFATYYCLQTDSVPLTFGQGTKVEIK	> 126000 M⁻¹ s⁻¹
hzKM5320 LV5HV0 antibody (antibody, V domains shown, Humanized; variant human IgG4 constant region (EU S228P, L235E, R409K), human kappa; also called A-08) VH: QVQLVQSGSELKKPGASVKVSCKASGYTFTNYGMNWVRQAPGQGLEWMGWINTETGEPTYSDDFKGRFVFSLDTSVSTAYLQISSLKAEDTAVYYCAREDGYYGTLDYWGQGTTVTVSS VL: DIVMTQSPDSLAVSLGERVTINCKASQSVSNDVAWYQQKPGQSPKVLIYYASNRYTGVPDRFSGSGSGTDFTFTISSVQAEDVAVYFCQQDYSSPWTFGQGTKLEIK	> 66700 M⁻¹ s⁻¹
hzKM5321 LV6HV5 antibody (antibody, V domains shown, Humanized; variant human IgG4 constant region (EU S228P, L235E, R409K), human kappa; also called B-29; LV6HV5) VH: QIHLVQSGSELKKPGASVKISCKASGYTFTNYGMNWVKQAPGQGLKWMGWINTNTGEPTYTEEFKGRFVFSLDTSVTTAYLQISTLKAEDTAVYFCARDEGWFVYWGQGTLITVSS VL: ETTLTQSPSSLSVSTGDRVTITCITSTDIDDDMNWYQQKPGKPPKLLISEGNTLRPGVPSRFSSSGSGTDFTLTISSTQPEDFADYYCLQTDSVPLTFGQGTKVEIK	> 106000 M⁻¹ s⁻¹
